The measured values listed here are drawn from paper PMC12064818.

Target: FLuc-C-HiBiT (Photinus pyralis)
Construct: firefly luciferase with C-terminal HiBiT tag, E. coli expressed
Assay: biochemical
Conditions: enzyme activity, 10 uM ATP; read-out: IC50 or SDR50 (mM) / FLuc E
Readout name: log10(IC50) (log10 of the value in mM)
Units before log transform: mM; reported quantity: IC50; transform: log10.

The molecule CC(C)c1noc(-c2nc(-c3ccc4c(c3)OCO4)no2)n1 [NCGC00450061-01] , tested on FLuc-C-HiBiT (Photinus pyralis), showed log10(IC50) of -2.11

The molecule CCN1CCN(c2ccc(-c3cccc(N)c3)nn2)CC1 [NCGC00432707-01] , when measured on FLuc-C-HiBiT (Photinus pyralis), yielded log10(IC50) of -2.00

# log10(IC50) measured on FLuc-C-HiBiT (Photinus pyralis) for item CCCOC(=O)CSc1ncnc2sc3c(c12)CCC(C)C3 (centres unmarked) [NCGC00100112-01] = -1.95

I looked up COc1ccc(NC(=O)N2CCc3c(C(=O)N(C)C)cccc32)cc1 [NCGC00430182-01] and its log10(IC50) for FLuc-C-HiBiT (Photinus pyralis) was -3.95

The molecule COc1ccc(C)cc1NC(=O)C1CCN(C(=O)c2ncn3c2COC(c2ccc(F)cc2)C3)CC1 (centres unmarked) [NCGC00449936-01] , when measured on FLuc-C-HiBiT (Photinus pyralis), yielded log10(IC50) of -2.00

Reported log10(IC50) (FLuc-C-HiBiT (Photinus pyralis)) for entry CC(=O)c1cccc(Nc2nn(-c3ccc(OC(F)(F)F)cc3)nc2C(C)=O)c1 [NCGC00116630-01] is -2.35

# log10(IC50) measured on FLuc-C-HiBiT (Photinus pyralis) for item O=C(NCCc1cccs1)C1CCN(C(=O)c2ncn3c2COC(c2ccccc2)C3)CC1 (centres unmarked) [NCGC00449796-01] = -2.35

----------
Molecular target: FLuc-C-HiBiT (Photinus pyralis, UniProt P08659)
Construct: firefly luciferase with C-terminal HiBiT tag, E. coli expressed
Sequence (P08659 whole entry, looked up): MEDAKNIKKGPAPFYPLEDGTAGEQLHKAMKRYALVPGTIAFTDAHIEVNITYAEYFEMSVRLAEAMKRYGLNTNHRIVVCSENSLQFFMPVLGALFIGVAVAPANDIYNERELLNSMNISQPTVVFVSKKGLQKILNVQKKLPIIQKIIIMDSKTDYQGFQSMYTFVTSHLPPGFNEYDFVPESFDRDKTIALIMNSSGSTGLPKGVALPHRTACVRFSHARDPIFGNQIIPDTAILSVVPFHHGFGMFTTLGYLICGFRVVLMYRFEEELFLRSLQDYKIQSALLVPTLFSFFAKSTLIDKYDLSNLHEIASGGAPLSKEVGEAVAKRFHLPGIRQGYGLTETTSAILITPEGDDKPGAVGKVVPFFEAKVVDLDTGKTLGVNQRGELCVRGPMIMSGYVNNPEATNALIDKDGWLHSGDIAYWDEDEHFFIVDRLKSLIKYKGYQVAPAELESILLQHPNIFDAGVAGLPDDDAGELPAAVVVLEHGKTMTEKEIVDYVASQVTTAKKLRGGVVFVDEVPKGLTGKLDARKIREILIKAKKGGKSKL
Assay: biochemical
Settings: enzyme activity, 10 uM ATP; read-out: IC50 or SDR50 (mM) / FLuc E
Readout name: IC50

Entry Cc1cnc(CC2CCCN(C(=O)CCc3c[nH]c4ccccc34)C2)n1C(C)C (stereo not drawn) ; IC50 = > 0.03 mM

For record `CCc1cccc(NCc2ccccc2-c2nnc(-c3ccccc3Cl)o2)c1` the listed IC50 is > 0.03 mM

Given item `COc1ccc(CC(=O)Nc2ccc(-c3nc4ccccc4s3)c(C)c2)cc1` , the value recorded as its IC50 is > 0.03 mM

----------
Molecular target: FLuc-C-HiBiT (Photinus pyralis, UniProt P08659)
Construct: firefly luciferase with C-terminal HiBiT tag, E. coli expressed
Test: biochemical
Conditions: enzyme activity, 10 uM ATP; read-out: IC50 or SDR50 (mM) / FLuc E
Readout name: IC50

Record summary for COc1ccc(OC)c(CN2CCOc3ccc(C(=O)NCc4ccc(C)cc4)cc3C2)c1 [NCGC00426332-01] : reported IC50 = > 0.03 mM

Record O=C(Nc1ccccc1)N1CCc2nc(C3CC3)nc(-c3ccc(Cl)cc3)c2C1 [NCGC00480419-01] , field IC50: > 0.03 mM

Briefly, IC50 measured for COc1ccc(CNC(=O)Cn2cccc2C(=O)c2ccccc2C)cc1 [NCGC00113808-01] : > 0.03 mM
